# MEASUREMENT DESCRIPTION: Drug uptake in Wistar/Han rat at 30 mg/kg, po of amorphus MBP compound measured at 8 hrs
# Assay type: ADME, organism-based
# Parameters: dose 30 mg/kg, route oral
# ASSAY CONDITIONS: in vivo, read-out: Drug uptake
RECORDED METRIC: concentration at 8 h (ng/mL)
Express your answer in ng/mL, writing the number without its unit.

[in] Entry COc1ccc(-c2cc(C(C)(C)C)c(OC)c3cc(-c4ccc(NS(C)(=O)=O)cc4)cnc23)c(=O)[nH]1 needs its concentration at 8 h filled in; supply it.
[out] 620

---

# MEASUREMENT DESCRIPTION: Thermodynamic solubility of the compound
# Assay type: physicochemical
# ASSAY CONDITIONS: read-out: Therm_solubility
RECORDED METRIC: solubility thermodynamic (µg/mL)
Express your answer in µg/mL, writing the number without its unit.

COMPOUND | solubility thermodynamic [µg/mL]
COc1ccc(-c2cc(C(C)(C)C)c(OC)c3cc(N4CC[C@H](CNS(C)(=O)=O)C4)cnc23)c(=O)[nH]1 | 39
COc1c(C(C)(C)C)cc(-c2ccc[nH]c2=O)c2ncc(N3CC[C@H](CNS(C)(=O)=O)C3)cc12 | 11
COc1c(C(C)(C)C)cc(-c2ccc(C)[nH]c2=O)c2ncc(CCCCNS(C)(=O)=O)cc12 | 168

[in] Entry Cc1ccc(-c2cc(C(C)(C)C)cc3cc(N4CCCC(CNS(C)(=O)=O)C4)cnc23)c(=O)[nH]1 (stereo unspecified) needs its solubility thermodynamic filled in; supply it.
[out] 66

---

# MEASUREMENT DESCRIPTION: Oral bioavailability in Wistar/Han rat at 30 mg/kg of compound as aqueous suspension
# Format: ADME, organism-based
# ASSAY CONDITIONS: in vivo
RECORDED METRIC: bioavailability (%)
Express your answer in %, writing the number without its unit.

[in] Entry COc1ccc(-c2cc(C(C)(C)C)c(OC)c3cc(N4CC[C@H](CNS(C)(=O)=O)C4)cnc23)c(=O)[nH]1 needs its bioavailability filled in; supply it.
[out] 100

---

# MEASUREMENT DESCRIPTION: AUC (0 to infinity) in Beagle dog at 3 mg/kg, po of compound as aqueous suspension
# Type: ADME, organism-based, Canis lupus familiaris
# Design: time infinity, dose 3 mg/kg, route oral
# ASSAY CONDITIONS: plasma
RECORDED METRIC: AUC(0-inf) (ng·h/mL)
Express your answer in ng·h/mL, writing the number without its unit.

[in] Entry COc1ccc(-c2cc(C(C)(C)C)c(OC)c3cc(N4CC[C@H](CNS(C)(=O)=O)C4)cnc23)c(=O)[nH]1 needs its AUC(0-inf) filled in; supply it.
[out] 4200

---

# MEASUREMENT DESCRIPTION: Half life in Wistar/Han rat at 3 mg/kg, iv
# Format: ADME, organism-based
# Set-up: dose 3 mg/kg, route intravenous
# ASSAY CONDITIONS: in vivo
RECORDED METRIC: half-life

[in] Entry COc1ccc(-c2cc(C(C)(C)C)c(OC)c3cc(N4CC[C@H](CNS(C)(=O)=O)C4)cnc23)c(=O)[nH]1 needs its half-life filled in; supply it.
[out] 336 min
